B1: OR3A1 (parent)
chain: PMYFFLGNLSVLDVGCISVTVPSM

# Variants of: B1
# assay-protocol: protein stability index of a GFP-peptide fusion (GPS, HEK-293T) (PSI 1-6); higher = more stable;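 further: lentivirally expressed fusions sorted by FACS into six bins by GFP to DsRed ratio, PSI derived from sequencing read proportions per bin multiplied by bin number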
# cond: c terminus: a fixed tail appended
quantity-name: protein stability index

{"columns": ["mutation-key", "recorded-number"],
 "data": [
  ["G7E", 3.86],
  ["V21R", 1.86],
  ["V19L", 2.42],
  ["D13S", 2.33],
  ["C16T", 3.51],
  ["T20M", 4.27],
  ["V19S", 3.48],
  ["I17H", 2.75],
  ["S18R", 3.87],
  ["M24F", 3.27],
  ["C16D", 3.14],
  ["V19M", 2.97],
  ["Y3N", 2.37],
  ["I17N", 4.43],
  ["S10K", 3.48],
  ["F4P", 3.27],
  ["M2G", 2.32],
  ["S23L", 3.71],
  ["P22Y", 3.21],
  ["F5N", 2.82],
  ["S18Y", 2.26],
  ["C16G", 2.78],
  ["S23P", 2.46],
  ["F5S", 3.9],
  ["V19Q", 3.27],
  ["V11L", 2.58],
  ["V11N", 2.23],
  ["S23Q", 3.82],
  ["F5P", 1.79],
  ["V14A", 3.36],
  ["F4R", 2.19],
  ["M2L", 4.31],
  ["M24I", 2.02],
  ["L6V", 2.32]
]}
